Each recorded value in this set is attributed to ChEMBL document CHEMBL1157557.

experiment: Photostability assessed as compound remaining by HPLC analysis; assay type: physicochemical
assay-readout: Stability (%)

I. COC(=O)C(=C(/C)c1cc(OC)cc(OC)c1)/C(=C\c1ccncc1)C(N)=O.Cl
II. COc1cc(OC)cc(/C(C)=C2\C(=O)N(Cc3cccnc3)C(=O)\C2=C\c2ccccc2)c1.Cl
III. COc1cc(/C=C2/C(=O)NC(=O)/C2=C/c2ccccc2)cc(OC)c1OC
For the molecules shown above, give the order from largest Stability to smallest. Rank them, then answer with their labels in that order.
I, II, III
(I: 97%, II: 47%, III: 12%)

a. COC(=O)C(=C(/C)c1cc(OC)cc(OC)c1)/C(=C\c1ccccc1)C(=O)NCc1cccnc1.Cl
b. COc1cc(OC)cc(/C(C)=C2\C(=O)N(Cc3ccncc3)C(=O)\C2=C\c2ccccc2)c1.Cl
Compare a and b by numeric Stability and name the larger one. Write down the label of the entry you select.
a
(a: 90%, b: 38%)
